# target-or-test-system: GST-Rok (full length) (Bacillus subtilis subsp. subtilis str. …, UniProt O34857 1-191)
# Sequence: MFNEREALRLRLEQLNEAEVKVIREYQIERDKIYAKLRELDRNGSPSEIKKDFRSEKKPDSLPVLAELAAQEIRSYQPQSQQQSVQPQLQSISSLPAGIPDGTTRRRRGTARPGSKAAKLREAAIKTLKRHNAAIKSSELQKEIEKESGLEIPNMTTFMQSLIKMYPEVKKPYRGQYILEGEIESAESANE
# experiment-notes: protein binding microarray; Rok is a gene silencer of Bacillus subtilis; high values mean tight binding
# condition-description: protein: recombinant; tags: GST (pTH5325, pDEST15-Magic modified); dsDNA, one strand shown
Over roughly 33,000 sequences, “e-score” has its median near -0.037; the highest 2% begin near 0.34. The list comes from a sample in which the highest values are over-represented; it also holds close analogues and randomly drawn sequences.
Short version: binding signal at least 0.2 E-score is Fulfilled, less is Not fulfilled.

>>> print(df.to_string())
    construct_sequence  class_assignment
 0            ATATATGG         Fulfilled
 1            GAAACTTC         Fulfilled
 2            TACAAGTA         Fulfilled
 3            CTTATGTA     Not fulfilled
 4            CTAACGCA     Not fulfilled
 5            AGGTTGAC     Not fulfilled
 6            TAGTCTGA     Not fulfilled
 7            CACAAACA     Not fulfilled
 8            CACAAATG     Not fulfilled
 9            ATAAAGAA     Not fulfilled
10            ACTTACAT         Fulfilled
11            CTAGCGAC     Not fulfilled
12            AGGTCTGG     Not fulfilled
13            ACCTATAT         Fulfilled
14            GGAATATA         Fulfilled
15            ATATTTGC         Fulfilled
16            ATATAATG         Fulfilled
17            GTTATTGA     Not fulfilled
18            CGAGGTCC     Not fulfilled
19            AGTTGTGC     Not fulfilled
20            GAAACTAC         Fulfilled
21            ATGTTGGC     Not fulfilled
22            AACAAATA         Fulfilled
23            CCATGTAG         Fulfilled
24            ACATGTAT     Not fulfilled
25            CATATGTA         Fulfilled
26            GTAAGAAA         Fulfilled
27            GTCGGCAA     Not fulfilled
28            GTATAAAA         Fulfilled
29            CGTAGTCC     Not fulfilled
30            ACATGTAG         Fulfilled
31            ACGGTTAG     Not fulfilled
32            TATAGTCA     Not fulfilled
33            GCGAGAAA     Not fulfilled
34            ATATTTAA         Fulfilled
35            AGTGAAAC     Not fulfilled
36            CTAATATC         Fulfilled
37            ATAATACC     Not fulfilled
38            CTACCTAA         Fulfilled
39            CTCTTTAC     Not fulfilled
40            ATAATAAA         Fulfilled
41            CTATAAGA         Fulfilled
42            CTACCTAG         Fulfilled
43            GATAGTAA         Fulfilled
44            ATACCTAG         Fulfilled
45            AGATGCAA     Not fulfilled
46            CTAGCTTA         Fulfilled
47            ATATACAT         Fulfilled
48            CGAATATA         Fulfilled
49            GTACCTAA     Not fulfilled
50            GTATTCAA     Not fulfilled
51            AGAGCACA     Not fulfilled
52            CTCGAGCA     Not fulfilled
53            AGAAGCTA     Not fulfilled
54            CATAATCA     Not fulfilled
55            AGAATATA         Fulfilled
56            CCTTAATC     Not fulfilled
57            ATACCTAC         Fulfilled
58            TCCAGAAA     Not fulfilled
59            CTAATAGA     Not fulfilled
60            CATAGTAA         Fulfilled
61            ATACCTAT         Fulfilled
62            TCCACAAA     Not fulfilled
